target: TAAR1 (Mus musculus); construct: expressed in transfected cells; host or cells: HEK293 cells (ATCC # CRL-1573), stably transfected with pIRESneo2 expression plasmid; membrane preparation; test: Radioligand binding to TAAR1, membranes of stably transfected HEK293 cells, [3H]-rac-2-(1,2,3,4-tetrahydro-1-naphthyl)-2-imidazoline; conditions: mouse TAAR1; 4° C., 30 minutes incubation; radioligand at 60 nM
Sequence (Q923Y8 whole entry): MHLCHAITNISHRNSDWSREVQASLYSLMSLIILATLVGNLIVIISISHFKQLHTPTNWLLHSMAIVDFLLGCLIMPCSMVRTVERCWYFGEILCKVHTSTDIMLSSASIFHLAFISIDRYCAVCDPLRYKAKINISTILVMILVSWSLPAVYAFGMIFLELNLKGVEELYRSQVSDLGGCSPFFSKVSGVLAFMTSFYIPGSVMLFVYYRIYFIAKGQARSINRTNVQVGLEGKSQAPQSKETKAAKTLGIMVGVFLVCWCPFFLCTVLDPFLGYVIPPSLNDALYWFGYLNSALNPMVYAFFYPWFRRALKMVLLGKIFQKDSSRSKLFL
Please use Condition met for Ki under 0.03 µM and Condition not met for everything else, ties included.

- Fc1ccc2c(c1)CCN2Cc1cnc[nH]1: Condition met
- Clc1ccc2c(c1)CCN2Cc1cnc[nH]1: Condition met
- CC1CN(Cc2cnc[nH]2)c2ccccc21 (racemic): Condition not met
- c1ccc(Oc2cccc3c2CCCN3Cc2c[nH]cn2)cc1: Condition met
- CC1COc2ccccc2N1Cc1cnc[nH]1 (single isomer, unassigned; (-)) [Example 49]: Condition not met
- c1ccc(COc2ccc3c(c2)N(Cc2cnc[nH]2)CCC3)cc1: Condition not met
- Clc1cccc2c1CCN2Cc1cnc[nH]1: Condition met
- CC1COc2ccccc2N1Cc1cnc[nH]1 (racemic) [Example 45]: Condition met
- Cc1ccc2c(c1)N(Cc1cnc[nH]1)CC2: Condition met
- c1ccc(COc2cccc3c2CCCN3Cc2cnc[nH]2)cc1: Condition met
- CC1CCc2ccccc2N1Cc1cnc[nH]1 (racemic) [Example 3]: Condition met
- c1ccc2c(c1)OCCN2Cc1cnc[nH]1: Condition not met
- COc1ccc2c(c1)CCCCN2Cc1cnc[nH]1: Condition not met
- Clc1cccc2c1N(Cc1cnc[nH]1)CC2: Condition not met
- COc1cccc2c1CCN2Cc1c[nH]cn1: Condition met
- c1ccc2c(c1)CCCN2Cc1cnc[nH]1: Condition met
- CC1Cc2cc(F)ccc2N1Cc1cnc[nH]1 (racemic): Condition not met
- CC1CCc2ccccc2N1Cc1cnc[nH]1 (single isomer, unassigned; (-)) [Example 47]: Condition not met
- COc1ccc2c(c1)CCN2Cc1cnc[nH]1: Condition not met
- c1ccc2c(c1)CCCCN2Cc1cnc[nH]1: Condition met
- Cc1ccc2c(c1)CCN2Cc1cnc[nH]1: Condition met
- Brc1ccc2c(c1)CCN2Cc1cnc[nH]1: Condition met
- Fc1ccc2c(c1)N(Cc1cnc[nH]1)CC2: Condition met
